These entries and their values trace back to patent US20230139171A1.

# tested target: human TLR9 (Homo sapiens)
# Sequence (Q9NR96 26-1032): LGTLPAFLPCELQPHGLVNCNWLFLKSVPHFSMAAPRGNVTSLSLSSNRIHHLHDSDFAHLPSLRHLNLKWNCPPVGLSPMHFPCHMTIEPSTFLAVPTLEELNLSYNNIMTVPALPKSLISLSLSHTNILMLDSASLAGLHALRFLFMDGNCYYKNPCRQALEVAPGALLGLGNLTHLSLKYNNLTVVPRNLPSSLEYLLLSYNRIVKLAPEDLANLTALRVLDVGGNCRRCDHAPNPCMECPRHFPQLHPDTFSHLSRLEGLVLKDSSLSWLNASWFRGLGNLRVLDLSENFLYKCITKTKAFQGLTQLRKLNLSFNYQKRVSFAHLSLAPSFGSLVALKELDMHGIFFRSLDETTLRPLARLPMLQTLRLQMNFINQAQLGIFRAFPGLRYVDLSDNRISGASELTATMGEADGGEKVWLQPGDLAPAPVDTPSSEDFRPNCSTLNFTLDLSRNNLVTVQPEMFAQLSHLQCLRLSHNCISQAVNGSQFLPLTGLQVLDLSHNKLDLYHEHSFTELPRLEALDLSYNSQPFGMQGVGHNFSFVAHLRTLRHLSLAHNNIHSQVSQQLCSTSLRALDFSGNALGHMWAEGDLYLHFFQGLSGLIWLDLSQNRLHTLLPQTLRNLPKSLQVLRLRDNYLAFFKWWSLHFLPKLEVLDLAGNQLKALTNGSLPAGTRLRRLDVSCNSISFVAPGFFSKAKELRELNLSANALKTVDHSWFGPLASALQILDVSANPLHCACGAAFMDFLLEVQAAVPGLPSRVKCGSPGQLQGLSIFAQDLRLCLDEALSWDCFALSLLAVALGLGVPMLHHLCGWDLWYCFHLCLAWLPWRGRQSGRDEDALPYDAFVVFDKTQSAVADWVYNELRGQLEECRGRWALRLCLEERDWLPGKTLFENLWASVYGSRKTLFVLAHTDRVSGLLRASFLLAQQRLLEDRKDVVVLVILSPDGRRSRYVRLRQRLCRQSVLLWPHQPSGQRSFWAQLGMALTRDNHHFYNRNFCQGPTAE
# assay notes: TLR9 inhibition reporter assay (HEK-Blue cells, SEAP reporter, ODN2006 stimulation)
# condition notes: HEK-Blue cells overexpressing human TLR9, SEAP reporter, ODN2006 5 nM
# Description: TLR7/8/9 Inhibition Reporter Assays HEK-Blue™-cells (Invivogen) overexpressing human TLR7, TLR8 or TLR9 receptors were used for screening inhibitors of these receptors using an inducible SEAP (secreted embryonic alkaline phosphatase) reporter gene under the control of the IFN-β minimal promoter fused to five NF-κB and AP-1-binding sites. […]
readout: IC50

Example cases with answers are listed next.
compound	IC50
Cc1c(-c2[nH]c3sc(C(=O)N4CCN(C(C)C)CC4)nc3c2C(C)C)cn2ncnc2c1C	6.52 µM
Cc1c(-c2[nH]c3sc(C4CCC(NCC(N)=O)CC4)nc3c2C(C)C)cn2ncnc2c1C (stereo not shown) [Example 210]	23.8 µM
CC(=O)N1CCN(C(=O)c2nc3c(C(C)C)c(-c4cn5ncnc5c(C)c4C)[nH]c3s2)CC1	35.6 µM

Output IC50 of Cc1c(-c2[nH]c3sc(C4CCC(N5CC(O)(C(F)(F)F)C5)CC4)nc3c2C(C)C)cn2ncnc2c1C (single isomer, unassigned) [Example 235]
16.6 µM

* * *

# tested target: human TLR7 (Homo sapiens)
# Construct: host or cells: HEK-Blue cells
# assay notes: TLR7 inhibition reporter assay (HEK-Blue cells, SEAP reporter, gardiquimod stimulation)
# Type: cell-based
# condition notes: HEK-Blue cells overexpressing human TLR7, SEAP reporter, gardiquimod 7.5 μM; read-out: TLR7 IC50
pIC50: −log10 of the molar value.
Give 1 when the value for pIC50 is at least 8. Give -1 when it is less.

# example entries with known answers
compound	class assignment
Cc1c(-c2[nH]c3sc(N4C[C@@H](C)N(C5CCC5)C[C@@H]4C)nc3c2C(C)C)cn2ncnc2c1C	-1
Cc1c(-c2[nH]c3sc(N4CCN(CC(C)(C)O)C[C@@H]4C)nc3c2C(C)C)cn2ncnc2c1C	-1
COC1CN(C2CCC(c3nc4c(C(C)C)c(-c5cn6ncnc6cc5C)[nH]c4s3)CC2)C1 (single isomer, unassigned) [Example 150]	1
CC(C)c1c(-c2cn(C)c3ncccc23)[nH]c2sc(C3CCC(NCC4(C)COC4)CC3)nc12 (single isomer, unassigned) [Example 172]	1
Cc1c(-c2[nH]c3sc(C4CCC(N5CCNC(=O)C5)CC4)nc3c2C(C)C)cn2ncnc2c1C (single isomer, unassigned) [Example 220]	1

Now turn to the next compound.
Has COc1cc(-c2[nH]c3sc(C4CCN(CC(C)(C)C)CC4)nc3c2C(C)C)cn2ncnc12 a recorded pIC50 greater than or equal to 8?
1

* * *

# tested target: human TLR7 (Homo sapiens, UniProt Q9NYK1)
# Construct: host or cells: HEK-Blue cells
# Sequence (Q9NYK1 27-1049): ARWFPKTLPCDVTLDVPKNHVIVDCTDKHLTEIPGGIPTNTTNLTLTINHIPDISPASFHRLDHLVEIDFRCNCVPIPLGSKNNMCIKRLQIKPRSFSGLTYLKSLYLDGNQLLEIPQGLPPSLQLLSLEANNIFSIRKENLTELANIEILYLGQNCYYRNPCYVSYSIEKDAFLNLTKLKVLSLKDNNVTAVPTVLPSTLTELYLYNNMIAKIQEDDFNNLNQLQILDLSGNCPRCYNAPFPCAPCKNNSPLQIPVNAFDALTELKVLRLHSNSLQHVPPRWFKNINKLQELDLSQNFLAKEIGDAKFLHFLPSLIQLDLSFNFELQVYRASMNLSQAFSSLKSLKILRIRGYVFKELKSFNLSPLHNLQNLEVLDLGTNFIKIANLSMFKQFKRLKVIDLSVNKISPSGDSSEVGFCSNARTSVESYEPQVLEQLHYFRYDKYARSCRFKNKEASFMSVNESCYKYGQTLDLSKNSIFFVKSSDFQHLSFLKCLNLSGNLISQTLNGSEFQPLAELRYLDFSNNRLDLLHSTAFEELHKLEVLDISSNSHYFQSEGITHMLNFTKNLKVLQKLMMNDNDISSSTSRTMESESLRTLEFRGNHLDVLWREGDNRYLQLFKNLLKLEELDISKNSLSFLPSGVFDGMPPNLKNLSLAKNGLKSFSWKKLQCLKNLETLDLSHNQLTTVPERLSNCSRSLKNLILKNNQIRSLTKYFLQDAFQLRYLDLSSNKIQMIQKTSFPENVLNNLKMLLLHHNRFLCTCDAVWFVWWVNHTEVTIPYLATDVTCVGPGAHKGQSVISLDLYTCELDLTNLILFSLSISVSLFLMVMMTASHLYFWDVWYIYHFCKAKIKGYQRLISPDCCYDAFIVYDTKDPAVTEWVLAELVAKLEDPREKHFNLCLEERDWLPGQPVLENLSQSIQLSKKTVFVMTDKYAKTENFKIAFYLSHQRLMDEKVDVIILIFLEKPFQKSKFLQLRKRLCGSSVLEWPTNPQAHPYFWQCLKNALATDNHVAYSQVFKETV
# assay notes: TLR7 inhibition reporter assay (HEK-Blue cells, SEAP reporter, gardiquimod stimulation)
# Assay type: cell-based
# condition notes: HEK-Blue cells overexpressing human TLR7, SEAP reporter, gardiquimod 7.5 μM; read-out: TLR7 IC50
readout: pIC50
Quick note: pIC50 values are minus log10 of concentrations in mol/L.

compound	readout	value observed
Cc1c(-c2[nH]c3sc(N4CCN(C5CCOCC5)CC4)nc3c2C(C)C)cn2ncnc2c1C	pIC50	7.88
Cc1c(-c2[nH]c3sc(C4CCC(N5CCC5)CC4)nc3c2C(C)C)cn(C)c(=O)c1C (single isomer, unassigned) [Example 255]	pIC50	8.16
Cc1c(-c2[nH]c3sc(N4C[C@@H](C)NC[C@@H]4C)nc3c2C(C)C)cn2ncnc2c1C	pIC50	8.18
Cc1c(-c2[nH]c3sc(C4CCC(N5CC6(COC6)C5)CC4)nc3c2C(C)C)cn2ncnc2c1C (single isomer, unassigned) [Example 193]	pIC50	8.71
COC(C)(C)CNC1CCC(c2nc3c(C(C)C)c(-c4cn5ncnc5c(C)c4C)[nH]c3s2)CC1 (single isomer, unassigned) [Example 186]	pIC50	8.80

Please look at the following compound next.
Kindly indicate its recorded pIC50. Item: COc1cc(-c2[nH]c3sc(C4CCC(N5CCCC5)CC4)nc3c2C(C)C)cn2ncnc12 (single isomer, unassigned) [Example 99]
8.92

* * *

IC50 listing for selected compounds.
# tested target: human TLR8 (Homo sapiens, UniProt Q9NR97)
# Construct: host or cells: HEK-Blue cells
# Sequence (Q9NR97 27-1041): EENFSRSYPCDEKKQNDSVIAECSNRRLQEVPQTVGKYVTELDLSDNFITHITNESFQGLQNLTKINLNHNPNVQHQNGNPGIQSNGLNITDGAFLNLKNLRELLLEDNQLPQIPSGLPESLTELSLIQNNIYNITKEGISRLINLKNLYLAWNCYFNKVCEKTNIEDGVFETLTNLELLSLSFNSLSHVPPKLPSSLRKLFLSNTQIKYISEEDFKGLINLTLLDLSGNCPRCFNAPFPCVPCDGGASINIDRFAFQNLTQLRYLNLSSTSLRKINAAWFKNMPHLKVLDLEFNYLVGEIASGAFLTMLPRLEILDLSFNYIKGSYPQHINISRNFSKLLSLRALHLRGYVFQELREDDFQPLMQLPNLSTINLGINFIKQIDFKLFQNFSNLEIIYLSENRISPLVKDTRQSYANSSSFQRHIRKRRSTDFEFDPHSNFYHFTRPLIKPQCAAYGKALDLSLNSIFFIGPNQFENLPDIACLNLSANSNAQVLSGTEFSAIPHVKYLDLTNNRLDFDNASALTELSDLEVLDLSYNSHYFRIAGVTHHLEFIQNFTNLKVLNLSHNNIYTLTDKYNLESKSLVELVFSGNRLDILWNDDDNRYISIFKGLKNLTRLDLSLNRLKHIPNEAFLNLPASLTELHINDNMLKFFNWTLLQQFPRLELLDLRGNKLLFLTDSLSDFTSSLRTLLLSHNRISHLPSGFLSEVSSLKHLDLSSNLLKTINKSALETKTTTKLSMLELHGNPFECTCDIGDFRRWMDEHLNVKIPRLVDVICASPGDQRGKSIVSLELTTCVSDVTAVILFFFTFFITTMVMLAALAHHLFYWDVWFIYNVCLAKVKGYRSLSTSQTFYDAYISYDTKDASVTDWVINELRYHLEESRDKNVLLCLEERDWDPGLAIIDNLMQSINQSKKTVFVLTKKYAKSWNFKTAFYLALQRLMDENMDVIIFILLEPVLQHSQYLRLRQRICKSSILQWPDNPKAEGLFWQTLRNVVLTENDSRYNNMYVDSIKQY
# assay notes: TLR8 inhibition reporter assay (HEK-Blue cells, SEAP reporter, R848 stimulation)
# Format: cell-based
# condition notes: HEK-Blue cells overexpressing human TLR8, SEAP reporter, R848 15.9 μM; read-out: TLR8 IC50
Field: numeric (nM). Do not append units.

Examples from the recorded data:
compound	readout	unit tag	value observed
COc1cc(-c2[nH]c3sc(C4CCC(NC5(C)CCC5)CC4)nc3c2C(C)C)cn2ncnc12 (single isomer, unassigned) [Example 108]	IC50	nM	4.49
COc1cc(-c2[nH]c3sc(C4CCC(N5CC(O)(C(F)(F)F)C5)CC4)nc3c2C(C)C)cn2ncnc12 (single isomer, unassigned) [Example 118]	IC50	nM	1.26

Moving on to another compound below.
State IC50 on human TLR8 (Homo sapiens, UniProt Q9NR97). Entry: Cc1c(-c2[nH]c3sc(C4CCC(NC5COC5)CC4)nc3c2C(C)C)cn2ncnc2c1C (single isomer, unassigned) [Example 185]
3.38

* * *

# tested target: human TLR8 (Homo sapiens, UniProt Q9NR97)
# Construct: host or cells: HEK-Blue cells
# assay notes: TLR8 inhibition reporter assay (HEK-Blue cells, SEAP reporter, R848 stimulation)
# Format: cell-based
# condition notes: HEK-Blue cells overexpressing human TLR8, SEAP reporter, R848 15.9 μM; read-out: TLR8 IC50
readout: pIC50
Scale for pIC50: -log10 of concentration given in mol/L; no unit attached.

Answered examples (6):
compound	pIC50
Cc1c(-c2[nH]c3sc(C4CCC(N5CCNC(=O)C5)CC4)nc3c2C(C)C)cn(C)c(=O)c1C (single isomer, unassigned) [Example 260]	6.86
CC(C)c1c(-c2cn(C)c3ncccc23)[nH]c2sc(C3CCN(CC(N)=O)CC3)nc12 [Example 31]	8.52
Cc1cc(-c2[nH]c3sc(C4CCC(NCC5(C)COC5)CC4)nc3c2C(C)C)cn2ncnc12 (single isomer, unassigned) [Example 135]	7.41
Cc1c(-c2[nH]c3sc(C(=O)NCC(C)(C)N4CCOCC4)nc3c2C(C)C)cn2ncnc2c1C [Example 374]	8.03
CCc1c(-c2cc(OC)c3ncnn3c2)[nH]c2sc(C3CCC(NC4COC4)CC3)nc12 (single isomer, unassigned) [Example 272]	6.91
COc1cc(-c2[nH]c3sc(C4CCNCC4)nc3c2C(C)C)cn2ncnc12 [Example 1]	8.09

Please give the documented pIC50 of Cc1cc(-c2[nH]c3sc(C4CCC(NC5COC5)CC4)nc3c2C(C)C)cn2ncnc12 (single isomer, unassigned) [Example 130]
8.62

Provide one value: measured pIC50 of CC(C)c1c(-c2cn(C)c3ncccc23)[nH]c2sc(C3CCC(NCC4(C)COC4)CC3)nc12 (single isomer, unassigned) [Example 173]
8.12

State, in one line, measured pIC50 of COc1cc(-c2[nH]c3sc(C4CCC(NC(C)C)CC4)nc3c2C(C)C)cn2ncnc12 (single isomer, unassigned) [Example 79]
8.03

Report measured pIC50; entry is COc1cc(-c2[nH]c3sc(C4CCC(N5CCCC5)CC4)nc3c2C(C)C)cn2ncnc12 (single isomer, unassigned) [Example 99]
7.44
